B1: CPEB3 Ribozyme (parent)
chain: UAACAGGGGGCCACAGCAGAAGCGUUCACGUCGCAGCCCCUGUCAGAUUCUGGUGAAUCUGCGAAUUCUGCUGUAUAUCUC

# Variants of: B1
# Method summary: self-cleavage, relative activity (ratio to wild type); higher = more cleavage; in vitro, sequencing
self-cleavage vs 0.5: at or above is 1, below is 0.

Some entries whose results are on file:
>>> df
   variant_name  assigned_class
0     A47G C50A               1
1     G24C A45G               0
2     A13G G73A               1
3      U1A U54A               1
4      G6A U41G               0

Prompt line: Determine whether measured self-cleavage meets or exceeds 0.5 for U51G A57G
Response line: 1

Prompt line: Determine whether measured self-cleavage meets or exceeds 0.5 for A21G U31A
Response line: 0

Prompt line: Determine whether measured self-cleavage meets or exceeds 0.5 for C29U C39A
Response line: 0
